Hey, just so you know, these numbers are from ChEMBL document CHEMBL5321208.

- System: Quadruplex DNA
- PROTOCOL TEXT: Binding affinity to FAM/TAMRA-labelled parallel KRAS G4 DNA (unknown origin) assessed as thermal stabilization at 1 to 8 uM measured at 10 to 95 degreeC by FRET analysis
- Format: nucleic-acid assay
- MEASUREMENT CONDITIONS: dose 1-8 µM
Calls of active or inactive are those of the source. The rule behind the calls is not given here.
The categories you may choose from are active, inactive

LINE NOTATION	LABEL CLASS
CCOC(=O)CCN1CCN(c2cc(C)nc(Nc3nc(C)c4ccc5c(c4n3)CCC5)n2)CC1	inactive
Cc1cc(N2CCN(c3ncccn3)CC2)nc(Nc2nc(C)c3ccc4c(c3n2)CCC4)n1	inactive
Cc1cc(N2CCNCC2)nc(Nc2nc(C)c3ccc4c(c3n2)CCCC4)n1	active
CCOC(=O)CCN1CCN(c2cc(C)nc(Nc3nc(C)c4ccc5c(c4n3)CCCC5)n2)CC1	inactive
Cc1cc(N2CCN(c3ncccn3)CC2)nc(Nc2nc(C)c3ccc4c(c3n2)CCCC4)n1	inactive

Task item: Per the assay record, what outcome was assigned to `Cc1cc(N2CCNCC2)nc(Nc2nc(C)c3ccc4c(c3n2)CCC4)n1` ?
Reply: active

Task item: Per the assay record, what outcome was assigned to `Cc1cc(N2CCN(C(=O)OC(C)(C)C)CC2)nc(Nc2nc(C)c3ccc4c(c3n2)CCC4)n1` ?
Reply: inactive

Task item: Per the assay record, what outcome was assigned to `Cc1cc(NCCN2CCN(C)CC2)nc(Nc2nc(C)c3ccc4c(c3n2)CCCC4)n1` ?
Reply: active

Task item: Per the assay record, what outcome was assigned to `Cc1cc(NCCN2CCN(C)CC2)nc(Nc2nc(C)c3ccc4c(c3n2)CCC4)n1` ?
Reply: active

Task item: Per the assay record, what outcome was assigned to `Cc1cc(N2CCN(C(=O)OC(C)(C)C)CC2)nc(Nc2nc(C)c3ccc4c(c3n2)CCCC4)n1` ?
Reply: inactive

----------
- Tested on: Quadruplex DNA
- PROTOCOL TEXT: Binding affinity to FAM/TAMRA-labelled 21g G4 DNA (unknown origin) assessed as thermal stabilization at 1 to 8 uM measured at 10 to 95 degreeC by FRET analysis
- Format: nucleic-acid assay
- MEASUREMENT CONDITIONS: dose 1-8 µM
Active and inactive are the calls of the source. No cut-off for these calls is given here.
EXPERIMENTAL READOUT: Activity

# annotated cases, reported Activity shown
LINE NOTATION	Activity
Cc1cc(NCCCN2CCN(C)CC2)nc(Nc2nc(C)c3ccc4c(c3n2)CCCC4)n1	Active
CCN(CC)CCCNc1cc(C)nc(Nc2nc(C)c3ccc4c(c3n2)CCC4)n1	Active
Cc1cc(NCCCN2CCCC2)nc(Nc2nc(C)c3ccc4c(c3n2)CCCC4)n1	Active
Cc1cc(NCCCN2CCN(C)CC2)nc(Nc2nc(C)c3ccc4c(c3n2)CCC4)n1	Active
Cc1cc(NCCCN2CCCC2)nc(Nc2nc(C)c3ccc4c(c3n2)CCC4)n1	Active
Cc1cc(NCCCN2CCCCC2)nc(Nc2nc(C)c3ccc4c(c3n2)CCCC4)n1	Active

// field: Activity; key: `Cc1cc(NCCCN2CCCCC2)nc(Nc2nc(C)c3ccc4c(c3n2)CCC4)n1` ; value = Active

// field: Activity; key: `CCN(CC)CCCNc1cc(C)nc(Nc2nc(C)c3ccc4c(c3n2)CCCC4)n1` ; value = Active

----------
- Test system: Quadruplex DNA
- PROTOCOL TEXT: Binding affinity to FAM/TAMRA-labelled c-KIT2 G4 DNA (unknown origin) assessed as thermal stabilization at 1 to 8 uM measured at 10 to 95 degreeC by FRET analysis
- Type: nucleic-acid assay
- MEASUREMENT CONDITIONS: dose 1-8 µM
Activity calls are given as the source filed them. The rule behind the calls is not given here.
EXPERIMENTAL READOUT: Activity

LINE NOTATION	Activity
CCN(CC)CCCNc1cc(C)nc(Nc2nc(C)c3ccc4c(c3n2)CCC4)n1	Active
Cc1cc(NCCCN2CCN(C)CC2)nc(Nc2nc(C)c3ccc4c(c3n2)CCCC4)n1	Active
Cc1cc(NCCCN2CCCCC2)nc(Nc2nc(C)c3ccc4c(c3n2)CCC4)n1	Active
Cc1cc(NCCCN2CCCC2)nc(Nc2nc(C)c3ccc4c(c3n2)CCCC4)n1	Active
CCN(CC)CCCNc1cc(C)nc(Nc2nc(C)c3ccc4c(c3n2)CCCC4)n1	Active
Cc1cc(NCCCN2CCN(C)CC2)nc(Nc2nc(C)c3ccc4c(c3n2)CCC4)n1	Active

Observed Activity on Quadruplex DNA, entry `Cc1cc(NCCCN2CCCCC2)nc(Nc2nc(C)c3ccc4c(c3n2)CCCC4)n1` , equals Active

Observed Activity on Quadruplex DNA, entry `Cc1cc(NCCCN2CCCC2)nc(Nc2nc(C)c3ccc4c(c3n2)CCC4)n1` , equals Active

----------
- PROTOCOL TEXT: Cytotoxicity against wildtype C57BL/6J mouse cancer activated fibroblast cells assessed as inhibition of cell growth incubated for 5 days by resazurin dye based fluorescence microscopic analysis
- Assay type: toxicity
EXPERIMENTAL READOUT: IC50 at 5 days (nM)
Reply with just the number (in nM).

# annotated cases, reported IC50 at 5 days shown
LINE NOTATION	EXPERIMENTAL READOUT	RESULT NUMBER
CCN(CC)CCCNc1cc(C)nc(Nc2nc(C)c3ccc4c(c3n2)CCC4)n1	IC50 at 5 days	2820
Cc1cc(NCCCN2CCN(C)CC2)nc(Nc2nc(C)c3ccc4c(c3n2)CCC4)n1	IC50 at 5 days	264

// moving on: another record for IC50 at 5 days
// field: IC50 at 5 days; key: `Cc1cc(NCCCN2CCCC2)nc(Nc2nc(C)c3ccc4c(c3n2)CCC4)n1` ; value = 2520

----------
- PROTOCOL TEXT: Antitumor activity against KPC mouse pancreatic cancer organoid expressing lentiviral modified GFP co-cultured with WT C57BL/6J mouse pancreatic stellate cells expressing mKate2 assessed as inhibition of cell growth incubated for 5 days by resazurin dye based fluorescence microscopic analysis
- Assay type: functional, tissue-based
- MEASUREMENT CONDITIONS: 120 h
We begin with a simple list: items and their reported IC50.
Reply with just the number (in nM).

# annotated cases, reported IC50 shown
LINE NOTATION	MEASURE UNIT	IC50
Cc1cc(NCCCN2CCCCC2)nc(Nc2nc(C)c3ccc4c(c3n2)CCC4)n1	nM	793
Cc1cc(NCCCN2CCCC2)nc(Nc2nc(C)c3ccc4c(c3n2)CCC4)n1	nM	161
Cc1cc(NCCCN2CCN(C)CC2)nc(Nc2nc(C)c3ccc4c(c3n2)CCC4)n1	nM	211
Cc1cc(NCCN2CCN(C)CC2)nc(Nc2nc(C)c3ccc4c(c3n2)CCC4)n1	nM	547

// moving on: another record for IC50
// field: IC50; key: `CCN(CC)CCCNc1cc(C)nc(Nc2nc(C)c3ccc4c(c3n2)CCC4)n1` ; value = 193

----------
- Tested on: Quadruplex DNA
- PROTOCOL TEXT: Binding affinity to FAM/TAMRA-labelled parallel c-MYC Pu24T G4 DNA (unknown origin) assessed as thermal stabilization at 1 to 8 uM measured at 10 to 95 degreeC by FRET analysis
- Format: nucleic-acid assay
- MEASUREMENT CONDITIONS: dose 1-8 µM
The source made the active and inactive calls. No cut-off for these calls is given here.
The categories you may choose from are active, inactive

LINE NOTATION	LABEL CLASS
CCN(CC)c1cc(C)nc(Nc2nc(C)c3ccc4c(c3n2)CCCC4)n1	active
CCN(CC)CCCNc1cc(C)nc(Nc2nc(C)c3ccc4c(c3n2)CCCC4)n1	active

Task item: Per the assay record, what outcome was assigned to `CCN(CC)CCCCCNc1cc(C)nc(Nc2nc(C)c3ccc4c(c3n2)CCCC4)n1` ?
Reply: active

Task item: Per the assay record, what outcome was assigned to `Cc1cc(N2CCN(c3ncccn3)CC2)nc(Nc2nc(C)c3ccc4c(c3n2)CCC4)n1` ?
Reply: inactive

Task item: Per the assay record, what outcome was assigned to `Cc1cc(NCCCN2CCCCC2)nc(Nc2nc(C)c3ccc4c(c3n2)CCC4)n1` ?
Reply: active

Task item: Per the assay record, what outcome was assigned to `Cc1cc(N2CCN(C(=O)OC(C)(C)C)CC2)nc(Nc2nc(C)c3ccc4c(c3n2)CCC4)n1` ?
Reply: inactive

Task item: Per the assay record, what outcome was assigned to `Cc1cc(NCCN2CCN(C)CC2)nc(Nc2nc(C)c3ccc4c(c3n2)CCCC4)n1` ?
Reply: active

Task item: Per the assay record, what outcome was assigned to `CCOC(=O)CCN1CCN(c2cc(C)nc(Nc3nc(C)c4ccc5c(c4n3)CCC5)n2)CC1` ?
Reply: inactive

Task item: Per the assay record, what outcome was assigned to `Cc1cc(NCCCN2CCNCC2)nc(Nc2nc(C)c3ccc4c(c3n2)CCCC4)n1` ?
Reply: active
